// data source = ChEMBL document CHEMBL2385043

- TEST SYSTEM: Lysine--tRNA ligase (Homo sapiens)
- Sequence (Q15046 whole entry): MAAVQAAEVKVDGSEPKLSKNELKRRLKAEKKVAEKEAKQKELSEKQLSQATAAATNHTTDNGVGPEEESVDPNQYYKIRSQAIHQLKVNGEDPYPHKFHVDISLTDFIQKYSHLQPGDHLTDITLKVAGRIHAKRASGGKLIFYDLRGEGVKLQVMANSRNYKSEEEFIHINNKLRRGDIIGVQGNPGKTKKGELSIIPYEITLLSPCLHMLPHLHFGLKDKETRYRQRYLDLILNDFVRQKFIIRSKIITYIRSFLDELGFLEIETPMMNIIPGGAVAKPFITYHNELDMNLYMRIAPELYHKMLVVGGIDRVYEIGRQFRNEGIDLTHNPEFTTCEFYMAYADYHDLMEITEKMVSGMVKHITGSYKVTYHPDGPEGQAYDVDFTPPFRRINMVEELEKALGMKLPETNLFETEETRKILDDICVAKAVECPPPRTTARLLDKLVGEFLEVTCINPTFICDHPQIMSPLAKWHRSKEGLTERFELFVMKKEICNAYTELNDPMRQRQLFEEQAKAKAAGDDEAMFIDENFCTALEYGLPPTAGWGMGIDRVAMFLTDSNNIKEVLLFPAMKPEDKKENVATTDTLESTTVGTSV
- MEASUREMENT DESCRIPTION: Inhibition of human recombinant cytoplasmic lysyl-tRNA synthetase
pIC50: −log10 of the molar value.
MEASUREMENT NAME: pIC50

// "C[C@H]1CCC[C@H](C[C@H]2Cc3cc(O)cc(O)c3C(=O)O2)O1" : pIC50 value = < 4.70

----------
- MEASUREMENT DESCRIPTION: Half life in Sprague-Dawley rat at 3 mg/kg, iv
- Assay type: ADME, organism-based
- Parameters: dose 3 mg/kg, route intravenous
- STATED CONDITIONS: in vivo
MEASUREMENT NAME: half-life (h)
The response must be a number in h with no trailing unit.

// CC(C)(N)CNC(=O)C[C@H]1CC[C@]2(CC1)OO[C@]1(O2)C2CC3CC(C2)CC1C3 [OZ277] : half-life value = 1

----------
- System: Plasmodium falciparum
- MEASUREMENT DESCRIPTION: Antiplasmodial activity against drug-sensitive Plasmodium falciparum 3D7
- Assay type: functional, organism-based
MEASUREMENT NAME: pEC50
# pEC50 is unitless: minus log10 of the molar concentration; print number only

// "COc1cc2nc(N3CCCN(C)CC3)nc(NC3CCN(Cc4ccccc4)CC3)c2cc1OC" : pEC50 value = 7.12

----------
# reported bioavailability; entries follow
- MEASUREMENT DESCRIPTION: Oral bioavailability in rat
- Type: ADME, organism-based
- STATED CONDITIONS: in vivo
The response must be a number in % with no trailing unit.

C/C(=C1\CCOC(=O)S1)N(C=O)CCCCCCCCCCCCN(C=O)/C(C)=C1/CCOC(=O)S1	15
CN1CCN(C2CCN(C(=O)CC3CCC4(CC3)OOC3(OO4)C4CC5CC(C4)CC3C5)CC2)CC1.Cc1ccc(S(=O)(=O)O)cc1 (stereo not drawn)	38

The record that follows has no bioavailability shown yet.
// "C[C@H]1Cc2c([nH]c3cc(Cl)c(F)cc23)[C@@]2(N1)C(=O)Nc1ccc(Cl)cc12" : bioavailability value = 100

----------
- MEASUREMENT DESCRIPTION: Oral bioavailability in Sprague-Dawley rat
- Format: ADME, organism-based
- STATED CONDITIONS: in vivo
MEASUREMENT NAME: bioavailability (%)
The response must be a number in % with no trailing unit.

// "CCc1nc(N)nc(N)c1OCCCOc1ccccc1CCC(=O)O.Cl" : bioavailability value = 46

----------
- System: Plasmodium falciparum
- MEASUREMENT DESCRIPTION: Antiplasmodial activity against erythrocytic stage of multidrug-resistant Plasmodium falciparum W2
- Type: functional, organism-based
MEASUREMENT NAME: EC50 (nM)
The response must be a number in nM with no trailing unit.

// O[C@@H](c1cc(C(F)(F)F)nc2c(C(F)(F)F)cccc12)[C@H]1CCCCN1 (relative stereo) [(S,R)-MEFLOQUINE] : EC50 value = 7

----------
- System: Plasmodium falciparum
- MEASUREMENT DESCRIPTION: Antiplasmodial activity against drug-sensitive Plasmodium falciparum 3D7
- Type: functional, organism-based
MEASUREMENT NAME: IC50
Include the unit after the number when you answer.

// CN1CCN(C2CCN(C(=O)CC3CCC4(CC3)OOC3(OO4)C4CC5CC(C4)CC3C5)CC2)CC1 (stereo unspecified) : IC50 value = 4.9 nM

----------
- Test system: Plasmodium falciparum
- MEASUREMENT DESCRIPTION: Antiplasmodial activity against drug-sensitive Plasmodium falciparum 3D7
- Assay type: functional, organism-based
MEASUREMENT NAME: pEC50
# pEC50 is unitless: minus log10 of the molar concentration; print number only

COc1cc2c(NC3CCN(C)CC3)nc(N3CCCN(C)CC3)nc2cc1OCc1ccccc1	7.00
CC(C)(C)c1cc(C(=O)N2CCN(c3ncccc3C(F)(F)F)CC2)n(Cc2ccccc2)n1	7.00

The measured pEC50 that "CCN(CC)Cc1cc(Nc2ccnc3cc(Cl)ccc23)ccc1O" showed for Plasmodium falciparum is 7.96

The measured pEC50 that "C[C@H]1Cc2c([nH]c3cc(Cl)c(F)cc23)[C@@]2(N1)C(=O)Nc1ccc(Cl)cc12" showed for Plasmodium falciparum is 9.15
